FYI, the data here is from the supplement of paper PMC9233669.

# Tested on: biotinyl-Ile-oxazolone
# testSummary: self-aminoacylation, catalytic enhancement (BIO) (fold over background); higher = more active; k-Seq, kA / k0A0; sequences stand for … in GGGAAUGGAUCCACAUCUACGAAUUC…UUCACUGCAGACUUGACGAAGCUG
This sample holds only a part of the variants without activity.
Let's look at some sequences and their measured self-aminoacylation.
Response field accepts a number only; no unit should be typed.

Reference set (3 entries):
| residueString | readout | measValue |
| --- | --- | --- |
| AUUCAACUAGGUCAUUGGGUG [Fam2.2 aminoacylation ribozyme variant] | self-aminoacylation | 2.3 |
| AUUACCCGGGUCAUGGAGUGA [Fam2.1 aminoacylation ribozyme variant] | self-aminoacylation | 2.82 |
| GUUGCCCUGGUCAUCGAGUGA [Fam2.1 aminoacylation ribozyme variant] | self-aminoacylation | 19.1 |

Let us examine a further case.
[ask] Value lookup for self-aminoacylation; key = AAGUCUGUUAAUAGUCGCAAG [Fam3.1 aminoacylation ribozyme variant]
[reply] 1.14
